Every entry's value here was drawn from ChEMBL document CHEMBL1127220.

- Test system: Rattus norvegicus
- method: Maximum % change of AII-supported portion of mean arterial pressure at 3 mg/kg, i.d.
- Assay type: functional, Artery
- condition: route intraduodenal
outcome.measure: Change (%)
Number only, in %; omit the unit.

Query: What does the record list as Change for `O=S(=O)(Nc1ccccc1-c1ccc(CNc2nc(C(F)(F)F)nc3c2CCCC3)cc1)C(F)(F)F` ?
Reply: -31

Query: # query: Change of entry `O=c1c(O)c(-c2ccccc2-c2ccc(CNc3nc(C(F)(F)F)nc4c3CCCC4)cc2)c1=O`
Reply: -52

Query: Entry `CCCCc1nc(Cl)c(CO)n1Cc1ccc(-c2ccccc2-c2nnn[nH]2)cc1` has what Change?
Reply: -72

Query: Could you share which Change value was measured for `O=C(O)c1ccccc1-c1ccc(CNc2nc(C(F)(F)F)nc3c2CCCC3)cc1` ?
Reply: -62

Query: Entry `FC(F)(F)c1nc2c(c(NCc3ccc(-c4ccccc4-c4nn[nH]n4)cc3)n1)CCCC2` : reported Change = ?
Reply: -75
